Data origin, for the record: patent US5925666A

Target: cocaine binding site of the human dopamine transporter (Homo sapiens, UniProt Q01959)
Sequence (Q01959 whole entry): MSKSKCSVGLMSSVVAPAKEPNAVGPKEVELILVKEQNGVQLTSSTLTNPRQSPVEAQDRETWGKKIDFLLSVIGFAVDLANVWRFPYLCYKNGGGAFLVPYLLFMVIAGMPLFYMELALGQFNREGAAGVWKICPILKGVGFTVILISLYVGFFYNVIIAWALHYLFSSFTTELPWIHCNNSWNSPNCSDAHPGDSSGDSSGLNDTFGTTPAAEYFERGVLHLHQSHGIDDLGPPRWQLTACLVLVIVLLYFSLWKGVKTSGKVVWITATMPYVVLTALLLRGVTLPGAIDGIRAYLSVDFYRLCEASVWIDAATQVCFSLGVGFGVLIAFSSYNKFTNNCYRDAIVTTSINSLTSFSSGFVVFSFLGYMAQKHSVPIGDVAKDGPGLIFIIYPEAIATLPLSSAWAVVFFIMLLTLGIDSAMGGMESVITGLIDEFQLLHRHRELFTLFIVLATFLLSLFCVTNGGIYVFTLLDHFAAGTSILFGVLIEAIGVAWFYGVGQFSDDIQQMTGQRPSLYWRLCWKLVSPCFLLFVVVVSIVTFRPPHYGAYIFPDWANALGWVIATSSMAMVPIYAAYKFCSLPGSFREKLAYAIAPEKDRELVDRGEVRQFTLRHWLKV
Assay: [3H]CFT binding at the cocaine binding site, hDAT cells
ENDPOINT_LABEL: Ki (nM)
The reply should be a number in nM, with the unit left off.

Solved cases below.
Cc1cc(C(O)(c2ccc(F)c(C)c2)[C@@H]2CCCN2)ccc1F :: 260
OC(c1ccccc1)(c1ccccc1)[C@H]1CCCN1 :: 40
OC(c1ccccc1)(c1ccccc1)[C@@H]1CCCN1 :: 400

Request: Reported Ki, compound CCCN1CCC[C@H]1C(O)(c1ccccc1)c1ccccc1 : ____
Result: 3300

###

Molecular target: human dopamine transporter (Homo sapiens, UniProt Q01959)
Experiment: [3H]Dopamine uptake inhibition, hDAT cells
Measured pKi, listed per entry.
Entry type: numeric. Quantity: pKi, the -log10 of concentration in molar units.

Solved cases below.
OC(c1ccccc1)(c1ccccc1)[C@H]1CCCN1 :: 6.77
OC(c1ccccc1)(c1ccccc1)[C@@H]1CCCN1 :: 5.78
Cc1cc(C(O)(c2ccc(F)c(C)c2)[C@@H]2CCCN2)ccc1F :: 6.36

Request: Reported pKi, compound CCCN1CCC[C@H]1C(O)(c1ccccc1)c1ccccc1 : ____
Result: 4.99

###

Biological target: human dopamine transporter (Homo sapiens, UniProt Q01959)
Construct: expressed in transfected cells
Test: [3H]Dopamine uptake inhibition, hDAT cells
Assay type: cell-based
Conditions: ratio of Kiuptake to Kibinding at hDAT
ENDPOINT_LABEL: Uptake to Binding Ratio (Kiuptake/Kibinding)
Form field (numeric): enter value without unit.

Solved cases below.
Cc1cc(C(O)(c2ccc(F)c(C)c2)[C@@H]2CCCN2)ccc1F [Compound 4] :: 1.69
OC(c1ccccc1)(c1ccccc1)[C@@H]1CCCN1 [Compound 2] :: 4.12
OC(c1ccccc1)(c1ccccc1)[C@H]1CCCN1 [Compound 1] :: 4.25

Request: Reported Uptake to Binding Ratio (Kiuptake/Kibinding), compound CCCN1CCC[C@H]1C(O)(c1ccccc1)c1ccccc1 [Compound 3] : ____
Result: 3.12
